Target: T1, UNK ZnF1-3 (human, UniProt Q9C0B0 31-174)
T1 sequence: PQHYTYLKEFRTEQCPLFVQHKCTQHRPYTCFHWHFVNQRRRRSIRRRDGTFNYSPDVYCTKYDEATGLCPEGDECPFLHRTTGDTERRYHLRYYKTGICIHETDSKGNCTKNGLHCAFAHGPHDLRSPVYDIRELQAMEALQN
Assay: nsRBNS (natural sequence RNA bind-n-seq); RBNS binding buffer (assumed for nsRBNS): 25 mM Tris pH 7.5, 150 mM KCl, 3 mM MgCl2, 0.01% Triton X-100, 500 ug/ml BSA, 20 U/ml SUPERase-In, 4 C; UNK is unkempt and MSI1 is Musashi-1; names of the RNAs are library labels; protein concentration not given here; high values mean tight binding
In all, about 24,000 sequences were measured (“enrichment r”: median about 0.99, highest 2% from about 3.7 on). Only a sample is shown.
Label 1 when binding signal is strictly below 1 enrichment R; otherwise label 0.

Record excerpt, results attached:
[[record]]
binder = "chr12:111867003:111867004:+_ENSMUSG00000018707_ENSMUST00000018851|mus_hu|FALSE|FALSE (ssRNA) RNA: GGGAGUUCUACAGUCCGACGAUCCACCAGCAUAUUUAUCUUCAUGUAACCUUUCAGAAGCCUCUGAACAAACUCAUAGGACGCAUACUGUCGCAACCGGGCAGGGAAGCUUUUCAGCUGGUUCAGGAGGGCAUCCAAAUUUUGCAACAGAGGAUUGAGCAUCA"
label_class = 0

[[record]]
binder = "64993253_64993373_409_3pUTR_ENSMUSG00000029920_ENSMUST00000031984|mouse|control|control (ssRNA) RNA: GGGAGUUCUACAGUCCGACGAUCCUUCAGCACUAAGAGAAAUUGGUGACGAAGGACGGGCCUGGGAGGGCUGAGGGGCUGCUUCGGGUGCUUCCUCAAUCUUACUCCUUUUCUCAAAGCGAAAACGGUCCAAGUUGAAAAGAUCAACAGAGGAUUGAGCAUCA"
label_class = 0


Please let me know if chr3:144353948:144353949:-_ENSMUSG00000037062_ENSMUST00000163279|mus_hu|FALSE|FALSE (ssRNA) RNA: GGGAGUUCUACAGUCCGACGAUCACCAAACAACUCUGAAAAUAACCCAUCAAAACAUAAUAUUAAAAUCAUUUGAUUUCUGUUGGAAAACCAGGUAAACAUAGUUUAAAUGCGUUUUUGUCUAUGAAAGCAUUCAGAAAAUUCCAACAGAGGAUUGAGCAUCA shows binding signal below 1 enrichment R.
1

Please let me know if chr13:108516651:108516652:-_ENSMUSG00000032846_ENSMUST00000105097|mus_hu|motif|central (ssRNA) RNA: GGGAGUUCUACAGUCCGACGAUCAUCAUGCGCCAUUAAGAAGGUCUCUCGGGCUUUGCUGAGGAACUCUAUAAACUCACGGUAGUGCCGAGGACUGAUGUGUGUGAGCCGUGAGUGCGUUGUGUUGAUGUAGGCCCCGAUCGUCAACAGAGGAUUGAGCAUCA shows binding signal below 1 enrichment R.
1

Please let me know if chr14:89307221:89307222:+_ENSG00000165533_ENST00000346301|hu_mus|hu_hu_hu_mus_False|58_98 (ssRNA) RNA: GGGAGUUCUACAGUCCGACGAUCUCCUGUUUGGUUAGUUCCAGGGAGCUUCAAAGAUGUGCCAGGGCGUGGGACCUGAGCUAUAGCAUUUUCAUCCAGGAUCAUUUCAGCAAUUCCUUCCUGGUCCACAUCAAUUUCAUCUAUCAACAGAGGAUUGAGCAUCA shows binding signal below 1 enrichment R.
1

Please let me know if chr12:96259795:96259796:+_ENSG00000139343_ENST00000266735|hu_mus|motif|central (ssRNA) RNA: GGGAGUUCUACAGUCCGACGAUCGAGGACAUUAUUACACCUUAUUAGAACUUCGCCCAGAUGUCCAGACAGCGCCCCAUCGGUGUACUCUUCUGUAUUUGCAAGCUGCAUGUUCAUGUAGCCAUCCACGGAGACCAGGUAGCCCAACAGAGGAUUGAGCAUCA shows binding signal below 1 enrichment R.
1

Please let me know if chr7:102952668:102952669:+_ENSG00000105819_ENST00000453466|hu_hu|motif|central (ssRNA) RNA: GGGAGUUCUACAGUCCGACGAUCCUGUUUAAAAUCUGGUAGUUGCUUAAUGGGACCAACAGCAGCAAUAGCUGGACUCCGGUUAUAAAUGUAUUUGGUACAUACUUCUCGAAUUGUCUCAGCAUUCACAGCAUCAAUUCUUGCCAACAGAGGAUUGAGCAUCA shows binding signal below 1 enrichment R.
0

Please let me know if chr11:79222206:79222207:+_ENSMUSG00000020716_ENSMUST00000071325|mus_hu|FALSE|FALSE (ssRNA) RNA: GGGAGUUCUACAGUCCGACGAUCUUUUGUAAAUUCAUCUGGAUAAUUUUCUACCCAGUUCCAAAAUGCCUUUUCCAGGCUAUUUAUAACUGCUAACUGCGCAACCUUCUUUAGGGCUUUAAAUUUAAAUGCUGUUUCCUUCAGCAACAGAGGAUUGAGCAUCA shows binding signal below 1 enrichment R.
1

Please let me know if chr3:179287964:179287965:+_ENSG00000136518_ENST00000429709|hu_hu|hu_hu_hu_mus_True|88_108 (ssRNA) RNA: GGGAGUUCUACAGUCCGACGAUCCUUUAGAGGUGAAAUGGCCUCCAUAUUCUCCCUGGGCACGCGGAGGGCAUUGGUGUCUAUGUAGUAGGUGGGCCCGCCCUGCUUGCCUUUGUCACCAUCAAUCUCCAUCAUUGUACUUCCCAACAGAGGAUUGAGCAUCA shows binding signal below 1 enrichment R.
1

Please let me know if chr7:7679991:7679992:-_ENSG00000106399_ENST00000396682|hu_hu|hu_hu_hu_mus_False|48_88 (ssRNA) RNA: GGGAGUUCUACAGUCCGACGAUCUGGGAUGAAUCUUUUCCAGCUUCCCUACGAAGCACACGGGCCGGUCGAUAUACUGUGGUAACAUGCCGGCGUUGACGCGCGCUUUGGGGAGCUGCAUUAUGUCCUCCAUGAUUCUGCCGCCAACAGAGGAUUGAGCAUCA shows binding signal below 1 enrichment R.
1
